Provide the recorded %Inh for the entries that follow.
tested on: TESK1; settings: concentration: 1 μM, replicates: in singlicate; n = 1;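 further: KINOMEscan kinase panel screen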
Only the number, expressed in %, is required.

Could you tell me which %Inh is on file for COc1ccc(NC(=O)c2ccc(-c3cc(-c4nnc(C)o4)ccc3C)cc2)cc1 [GW595885] ? 24

Request: `O=C(NCCCN1CCCC1=O)c1cnc(NCc2cc(Cl)ccc2Cl)nc1NC1CCNCC1` 2

CCc1nc(-c2cccc(N(C)S(=O)(=O)c3ccccc3)c2)c(-c2ccnc(Nc3ccc(N4CCN(C(C)=O)CC4)nc3)n2)s1 [GSK1645895] ? 0

Item: FC(F)(F)c1cc(Nc2nccc(-c3c(-c4ccc(Cl)cc4)nn4ncccc34)n2)ccc1Cl [GW829351] 0

Another molecule to check: O=C(Nc1ccccc1F)NC1CCN(c2ccnc(Nc3ccc(F)cc3)n2)C1 (centres unmarked) [GSK1379722] 16

Do the same for `Fc1cccc(COc2ccc(Nc3ncnc4cc[nH]c34)cc2Cl)c1` please 0

Proceed to CCC(CC)(CC)n1cnc2c(N)ncnc21 [SKF-97620] 0

Same lookup for Nc1nc(-c2ccc3c(N)n[nH]c3c2)cc(N2CCC[C@@H](C(=O)Nc3ccccc3)C2)n1.O=C(O)C(F)(F)F.O=C(O)C(F)(F)F [GSK2288359] , please. 18

Same question, O=C(Nc1n[nH]c2nc(-c3ccco3)c(Br)cc12)c1ccc(CN2CCCC2)cc1.O=C(O)[C@H](O)[C@@H](O)C(=O)O [SB-742352] this time 8

// same read-out, input: Cc1cc(N2CCC(NS(=O)(=O)c3ccc(F)cc3)CC2)nc(Nc2cccc(C#N)c2)n1.O=C(O)C(F)(F)F [GSK1653537] 9

Param item: Cc1ccc(NC(=O)c2cccc(C#N)c2)cc1-c1ccc(C(=O)Nc2ccncc2)cc1 [GSK1398463] 0

What would you report for `C[C@@H]1CCN(C(=O)CO)C[C@@H]1N(C)c1ncnc2[nH]ccc12` ? 12

Now this one: `Clc1cc(Nc2ncnc3cc[nH]c23)ccc1OCc1ccccn1` 7

Input Clc1cccc(-c2nc(Nc3ccncc3)c3ccccc3n2)c1 [GW873004] 19

Again, but for FC(F)(F)c1ccc(-c2nn3ncccc3c2-c2ccnc(Nc3cccc(C(F)(F)F)c3)n2)cc1 [GW828205] 3

What do we get for Cl.O=S(=O)(c1cccc(F)c1)c1ccc(Nc2ncnc3cc(Br)sc23)cc1Cl [GSK306886] ? 0

One more molecule: `Fc1ccc(-c2ncn(CCCNCc3ccccc3)c2-c2ccncc2)cc1` 6

---

Provide the recorded %Inh for the entries that follow.
tested on: MTOR; conditions: concentration: 1 μM, replicates: in singlicate; n = 1
Write the number in % without appending the unit.

State its %Inh on MTOR: `Fc1ccc(Nc2nccc(-c3c(-c4ccc(Cl)cc4)nn4ncccc34)n2)cc1F` 26

Also, `COC(=O)c1c(-c2ccccc2)c2cc(Cl)ccc2c(=O)n1Cc1ccc(S(C)(=O)=O)cc1` please. 0

Next: `COc1cc2c(Nc3cccc(NC(=O)c4ccccc4)c3)ncnc2cc1OCCCN1CCOCC1` 6

Now the same for `COc1cc2ncnc(Nc3ccc(OCc4ccccc4Br)c(Cl)c3)c2cc1OC.Cl` 24

Now try `CS(=O)(=O)CCNCc1nc(-c2ccc3ncnc(Nc4ccc(OCc5cccc(F)c5)c(Cl)c4)c3c2)cs1.Cl` . 4

Moving on to `Cn1ccc2ncnc(Nc3ccc(Oc4cccc(Cl)c4)c(Cl)c3)c21` 0

Input O=C(Nc1ccccc1F)NC1CCN(c2ccnc(Nc3ccc(F)cc3)n2)C1 (centres unmarked) 17

Then this compound: `Cc1cc(N2CCC(NS(=O)(=O)c3ccc(F)cc3)CC2)nc(Nc2cccc(C#N)c2)n1.O=C(O)C(F)(F)F` 6
